Origin of the recorded values: patent US20240301052A1

Molecular target: T1, human SLC34A2 (human, UniProt O95436 1-690)
T1 sequence (looked up): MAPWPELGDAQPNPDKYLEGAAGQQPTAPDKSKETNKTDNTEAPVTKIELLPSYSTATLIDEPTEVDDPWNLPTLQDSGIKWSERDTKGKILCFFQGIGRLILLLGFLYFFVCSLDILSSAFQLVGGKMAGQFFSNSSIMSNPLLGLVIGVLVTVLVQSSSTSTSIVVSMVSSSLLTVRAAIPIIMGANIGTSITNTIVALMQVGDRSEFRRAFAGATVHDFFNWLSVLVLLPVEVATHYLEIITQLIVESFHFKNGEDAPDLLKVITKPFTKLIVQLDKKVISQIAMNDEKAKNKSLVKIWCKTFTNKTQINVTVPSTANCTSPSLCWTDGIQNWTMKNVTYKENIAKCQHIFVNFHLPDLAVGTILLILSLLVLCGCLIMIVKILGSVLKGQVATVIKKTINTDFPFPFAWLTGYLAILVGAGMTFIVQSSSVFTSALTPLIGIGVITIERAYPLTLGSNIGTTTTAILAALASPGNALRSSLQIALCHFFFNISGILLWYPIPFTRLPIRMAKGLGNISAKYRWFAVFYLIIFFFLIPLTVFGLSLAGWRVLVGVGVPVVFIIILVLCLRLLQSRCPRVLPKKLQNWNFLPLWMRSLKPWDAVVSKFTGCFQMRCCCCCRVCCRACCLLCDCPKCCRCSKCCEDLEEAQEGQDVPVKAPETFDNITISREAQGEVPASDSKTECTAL
Assay: cell-based or functional assay
Consider the following binders; for each one, report its ADCC reporter EC50.
One number for each entry, in nM.

# annotated cases, reported ADCC reporter EC50 shown
91C9F1.p1.z4 hIgG1 (antibody, V domains shown, humanized hIgG1) VH: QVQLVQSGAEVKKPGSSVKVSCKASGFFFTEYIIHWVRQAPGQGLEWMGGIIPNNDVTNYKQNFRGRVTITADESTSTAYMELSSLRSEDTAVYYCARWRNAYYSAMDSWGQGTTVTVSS VL: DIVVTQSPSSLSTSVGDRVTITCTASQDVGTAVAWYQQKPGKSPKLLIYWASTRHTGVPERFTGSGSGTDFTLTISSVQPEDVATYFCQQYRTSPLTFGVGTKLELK : 3.14
30H9B8F9.p1.z13 hIgG1 (antibody, V domains shown, humanized hIgG1) VH: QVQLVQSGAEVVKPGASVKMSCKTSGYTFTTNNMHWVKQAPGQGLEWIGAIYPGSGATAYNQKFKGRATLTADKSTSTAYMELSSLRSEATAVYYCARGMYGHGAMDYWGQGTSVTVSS VL: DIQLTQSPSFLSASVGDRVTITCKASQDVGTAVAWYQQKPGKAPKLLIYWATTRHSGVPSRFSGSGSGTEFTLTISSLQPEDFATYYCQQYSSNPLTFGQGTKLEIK : 0.96

// input: 3 binders below; output: ADCC reporter EC50 for each
1. xi91C9F1 hIgG1 (antibody, V domains shown, chimeric, hIgG1) VH: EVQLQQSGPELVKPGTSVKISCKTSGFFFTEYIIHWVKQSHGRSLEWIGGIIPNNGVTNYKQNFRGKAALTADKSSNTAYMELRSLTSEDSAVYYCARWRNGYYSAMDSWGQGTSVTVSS VL: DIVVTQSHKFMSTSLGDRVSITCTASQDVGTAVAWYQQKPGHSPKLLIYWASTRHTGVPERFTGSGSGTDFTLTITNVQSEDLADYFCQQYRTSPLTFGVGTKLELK
2. 30H9B8F9.p1.z5 hIgG1 (antibody, V domains shown, humanized hIgG1) VH: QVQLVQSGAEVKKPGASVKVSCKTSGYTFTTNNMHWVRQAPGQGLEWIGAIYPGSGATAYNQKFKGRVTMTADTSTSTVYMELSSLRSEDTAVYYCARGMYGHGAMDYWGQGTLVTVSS VL: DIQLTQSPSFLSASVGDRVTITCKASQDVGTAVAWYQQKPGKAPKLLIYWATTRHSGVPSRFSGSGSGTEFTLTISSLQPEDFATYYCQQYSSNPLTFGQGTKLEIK
3. 30H9B8F9.p1.z6 hIgG1 (antibody, V domains shown, humanized hIgG1) VH: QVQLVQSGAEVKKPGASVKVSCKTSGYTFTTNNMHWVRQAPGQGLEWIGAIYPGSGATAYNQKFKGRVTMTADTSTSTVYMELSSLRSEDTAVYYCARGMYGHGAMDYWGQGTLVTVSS VL: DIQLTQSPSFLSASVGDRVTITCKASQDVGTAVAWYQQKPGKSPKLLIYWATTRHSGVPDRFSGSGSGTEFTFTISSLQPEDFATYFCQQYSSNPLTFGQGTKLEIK

Result:
1. 1.96
2. 0.72
3. 1.25
